- Tested on: Pseudogymnoascus destructans 20631-21
- test: growth activity index (DuctApe, 0 = no growth, 9 = maximal growth) (index 0-9); higher = more fungal growth (less inhibition), active = 0 or less; extreme values may be limits of the assay
- settings: concentration level (1-4, increasing; Biolog proprietary): 1; temperature: 13 °C; YPD
Classify as follows. Reported growth activity index greater than or equal to 4: Fulfilled. Reported growth activity index below: Not fulfilled.

// below: answered compounds
CN(C)CCCN1c2ccccc2Sc2ccc(Cl)cc21 [Chlorpromazine] (Biolog plate: PM23) = Fulfilled
CO/N=C(\C(=O)N[C@@H]1C(=O)N2C(C(=O)O)=C(CSc3nc(=O)c(O)nn3C)CS[C@H]12)c1csc(N)n1 [Ceftriaxone] (Biolog plate: PM22) = Not fulfilled
NC(N)=NCCC[C@H](N)C(=O)NO [L-Arginine hydroxamate] (Biolog plate: PM22) = Fulfilled
O.O=S(=O)([O-])[O-].O=S(=O)([O-])[O-].O=S(=O)([O-])[O-].[Al+3].[Al+3] [Aluminum sulfate] (Biolog plate: PM24) = Not fulfilled
NC(CO)C(=O)NO (racemic) [DL-Serine hydroxamate] (Biolog plate: PM22) = Fulfilled

Asked: Reported growth activity index reaches at least 4 for NC[C@@H]1O[C@H](O[C@H]2[C@@H](O)[C@H](O[C@@H]3[C@@H](O)[C@H](N)C[C@H](N)[C@H]3O[C@H]3O[C@H](CN)[C@@H](O)[C@H](O)[C@H]3N)O[C@@H]2CO)[C@H](N)[C@@H](O)[C@@H]1O [Neomycin] (Biolog plate: PM21) ?
Given back: Fulfilled

Asked: Reported growth activity index reaches at least 4 for O=c1[nH]cc(F)c(=O)[nH]1 [5-Fluorouracil] (Biolog plate: PM25) ?
Given back: Fulfilled

Asked: Reported growth activity index reaches at least 4 for O=C(O)CN(CCOCCOCCN(CC(=O)O)CC(=O)O)CC(=O)O (Biolog plate: PM24) ?
Given back: Fulfilled

Asked: Reported growth activity index reaches at least 4 for Nc1[nH]c(=O)ncc1F [5-Fluorocytosine] (Biolog plate: PM25) ?
Given back: Fulfilled

Asked: Reported growth activity index reaches at least 4 for CC(CN1c2ccccc2Sc2ccccc21)N(C)C (centres undefined) [Promethazine] (Biolog plate: PM21) ?
Given back: Fulfilled

Asked: Reported growth activity index reaches at least 4 for CC(=O)OCC1=C(C(=O)O)N2C(=O)[C@@H](NC(=O)Cc3cccs3)[C@H]2SC1 [Cephalotin] (Biolog plate: PM22) ?
Given back: Fulfilled

Asked: Reported growth activity index reaches at least 4 for O=c1[nH]c(=O)n([C@H]2C[C@H](O)[C@@H](CO)O2)cc1F [Fluorodeoxyuridine] (Biolog plate: PM25) ?
Given back: Fulfilled

----------
- Tested on: Pseudogymnoascus destructans 20631-21
- test: growth activity index (DuctApe, 0 = no growth, 9 = maximal growth) (index 0-9); higher = more fungal growth (less inhibition), active = 0 or less; extreme values may be limits of the assay
- settings: concentration level (1-4, increasing; Biolog proprietary): 3; temperature: 13 °C; YPD
Classify as follows. Reported growth activity index greater than or equal to 1: True. Reported growth activity index below: False.

// below: answered molecules
O=C(O)CN(CC(=O)O)c1ccccc1OCCOc1ccccc1N(CC(=O)O)CC(=O)O (Biolog plate: PM22) = True
OB(O)O [Boric acid] (Biolog plate: PM22) = False
C[C@@H]1[C@H](O)[C@@H](C)/C=C/C=C/C=C/C=C/C=C/C=C/C=C/[C@H](O[C@@H]2O[C@H](C)[C@@H](O)[C@H](N)[C@@H]2O)C[C@@H]2O[C@](O)(C[C@@H](O)C[C@@H](O)[C@H](O)CC[C@@H](O)C[C@@H](O)CC(=O)O[C@H]1C)C[C@H](O)[C@H]2C(=O)O [Amphotericin B] (Biolog plate: PM24) = False
O=C([O-])CC(O)(CC(=O)[O-])C(=O)[O-].[Na+].[Na+].[Na+] [Citric acid Trisodium Salt] (Biolog plate: PM25) = True
O=c1cn[nH]c(=O)[nH]1 [6-Azauracil] (Biolog plate: PM24) = True
c1ccc(-c2ccccn2)nc1 [2,2`-Dipyridyl] (Biolog plate: PM21) = True
CC(C)Cc1ccc(C(C)C(=O)O)cc1 (stereo not given) [Ibuprofen] (Biolog plate: PM25) = True
OCC1OC(O)CC(O)C1O [2-Deoxy-D-glucose] (Biolog plate: PM23) = True

Asked: Reported growth activity index reaches at least 1 for NC(N)=S [Thiourea] (Biolog plate: PM21) ?
Given back: False

----------
Give growth activity index for every item shown.
- Test system: Pseudogymnoascus destructans 20631-21
- test: growth activity index (DuctApe, 0 = no growth, 9 = maximal growth) (index 0-9); higher = more fungal growth (less inhibition), active = 0 or less; extreme values may be limits of the assay
- settings: concentration level (1-4, increasing; Biolog proprietary): 1; temperature: 13 °C; YPD

Clc1ccc(COC(Cn2ccnc2)c2ccc(Cl)cc2Cl)c(Cl)c1 (stereo not given) [Miconazole Nitrate] (Biolog plate: PM24) = 4.67 (inactive)
NCC(=O)NO [Glycine hydroxamate] (Biolog plate: PM22) = 5 (inactive)
O=c1cn[nH]c(=O)[nH]1 [6-Azauracil] (Biolog plate: PM24) = 4.67 (inactive)
NC(N)=O [Urea hydrogen peroxide] (Biolog plate: PM22) = 4.67 (inactive)

Consider the record given below.
Asked: Please indicate growth activity index recorded for CC(C)Cc1ccc(C(C)C(=O)O)cc1 (stereo not given) [Ibuprofen] (Biolog plate: PM25)
Given back: 4.33 (inactive)

----------
- Tested on: Pseudogymnoascus destructans 20631-21
- test: growth activity index (DuctApe, 0 = no growth, 9 = maximal growth) (index 0-9); higher = more fungal growth (less inhibition), active = 0 or less; extreme values may be limits of the assay
- settings: concentration level (1-4, increasing; Biolog proprietary): 1; temperature: 13 °C; YPD
assayMetric: growth activity index
Answers are plain numbers.

Answered examples (5):
CCCCCCCCCCCC[N+](C)(C)CCOc1ccccc1 [Domiphen bromide] (Biolog plate: PM21) = 4
CN[C@@H]1[C@@H](O[C@H]2O[C@H](CO)[C@@H](N)[C@H](O)[C@H]2O)OC2C[C@@H](N)[C@@H](O[C@H]3[C@H](O)[C@@H](O)[C@H](N)C[C@@H]3N)OC2[C@@H]1O (some centres not stated) [Apramycin] (Biolog plate: PM24) = 5
OB(O)O [Boric acid] (Biolog plate: PM22) = 5.33
C[C@H]1c2cccc(O)c2C(=O)C2=C(O)[C@]3(O)C(=O)C(C(N)=O)=C(O)[C@@H](N(C)C)[C@@H]3[C@@H](O)[C@@H]21 [Doxycycline] (Biolog plate: PM23) = 4.67
COc1cc(/C=C/C(=O)O)ccc1O [Ferulic acid] (Biolog plate: PM25) = 1

List reported growth activity index for each of these compounds:
1. N=C(N)c1ccc(OCCCCCOc2ccc(C(=N)N)cc2)cc1 [Pentamidine Isethionate] (Biolog plate: PM24)
2. O=C(O)C(O)C(O)C(=O)O (configuration not stated) [Tartaric acid] (Biolog plate: PM25)

Given back:
1: 0.333; 2: 3.33

----------
Give growth activity index for every item shown.
- Test system: Pseudogymnoascus destructans 20631-21;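 also: biolog Phenotype Microarray plates PM21–25, OD595 followed daily over 11 days, growth curves converted to index, mean of two independent experiments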
- test: growth activity index (DuctApe, 0 = no growth, 9 = maximal growth) (index 0-9); higher = more fungal growth (less inhibition), active = 0 or less; extreme values may be limits of the assay
- settings: concentration level (1-4, increasing; Biolog proprietary): 2; temperature: 13 °C; YPD
Numbers only.

Answered examples (10):
[Cl][Cu][Cl] [Cupric chloride] (Biolog plate: PM23) = 5.33
CN(C)[C@@H]1C(O)=C(C(N)=O)C(=O)[C@@]2(O)C(O)=C3C(=O)c4c(O)ccc(Cl)c4[C@@](C)(O)[C@H]3C[C@@H]12 [Chlortetracycline] (Biolog plate: PM24) = 4.33
c1ccc(-c2ccccn2)nc1 [2,2`-Dipyridyl] (Biolog plate: PM21) = 5
OB(O)O [Boric acid] (Biolog plate: PM22) = 0.333
CN(C)C(=O)/N=N/C(=O)N(C)C [Diamide] (Biolog plate: PM21) = 5
O=C(O)CC(O)C(=O)O (stereo unspecified) [Malic acid] (Biolog plate: PM25) = 5
O=S(=O)([O-])[O-].[Cu+2] [Copper (II) sulfate] (Biolog plate: PM21) = 6
O=NO [Sodium Nitrite] (Biolog plate: PM23) = 2.67
NC[C@H]1O[C@H](O[C@H]2[C@H](O)[C@@H](O[C@H]3O[C@H](CO)[C@@H](O)[C@H](N)[C@H]3O)[C@H](N)C[C@@H]2N)[C@H](N)C[C@@H]1O [Tobramycin] (Biolog plate: PM25) = 5
[Cl][Mn][Cl] [Manganese chloride] (Biolog plate: PM21) = 5.25

List reported growth activity index for each of these compounds:
1. Clc1ccc(COC(Cn2ccnc2)c2ccc(Cl)cc2Cl)c(Cl)c1 (stereo unspecified) [Miconazole Nitrate] (Biolog plate: PM24)
2. [Cl-].[Cl-].[Zn+2] [Zinc chloride] (Biolog plate: PM21)
3. OCC1OC(O)CC(O)C1O [2-Deoxy-D-glucose] (Biolog plate: PM23)
4. C[C@H]1c2cccc(O)c2C(=O)C2=C(O)[C@]3(O)C(=O)C(C(N)=O)=C(O)[C@@H](N(C)C)[C@@H]3[C@@H](O)[C@@H]21 [Doxycycline] (Biolog plate: PM23)
5. CCCCCCCC(=O)[O-].[Na+] [Sodium Caprylate] (Biolog plate: PM23)
6. NC(N)=O [Urea hydrogen peroxide] (Biolog plate: PM22)

Given back:
1: 0.333; 2: 6.75; 3: 5; 4: 5; 5: 3.33; 6: 4
